system: CAL-148; experiment: normalised viability (% of control), CellTiter-Blue; higher = more viable cells (100 = DMSO, 0 = benzethonium chloride kill control); conditions: 1 nM; incubation time: 72 h

cpd.smiles	normalised viability / %
Cc1ccc(-c2cc(C(F)(F)F)nn2-c2ccc(S(N)(=O)=O)cc2)cc1	95.4
CC[C@H](Nc1ncnc2[nH]cnc12)c1nc2cccc(F)c2c(=O)n1-c1ccccc1	91.3
Nc1nc(F)nc2c1ncn2[C@@H]1O[C@H](CO)[C@@H](O)[C@@H]1O	81.9
Nc1ccccc1NC(=O)c1ccc(CNC(=O)OCc2cccnc2)cc1	95.8

---

system: HCC1937; assay: normalised response (% of control), CellTiter-Glo; higher = more viable cells (100 = DMSO, 0 = benzethonium chloride kill control); settings: incubation time: 72 h
Listing: normalised response of selected compounds
property.name: normalised response (%)

compound	study.system	endpoint.unit	value
Nc1nc2[nH]cc(CCc3ccc(C(=O)N[C@@H](CCC(=O)O)C(=O)O)cc3)c2c(=O)[nH]1 [Pemetrexed] (100 nM)	HCC1937	%	75.7
C=CC(=O)N1CCC[C@@H](n2nc(-c3ccc(Oc4ccccc4)cc3)c3c(N)ncnc32)C1 [Ibrutinib] (10 nM)	HCC1937	%	94.2
CC[C@H](Nc1ncnc2[nH]cnc12)c1nc2cccc(F)c2c(=O)n1-c1ccccc1 [GS-1101] (100 nM)	HCC1937	%	90.8
CCc1cncnc1N1CCN(Cc2nc3ccc(C(F)(F)F)cc3[nH]2)CC1 (100 nM)	HCC1937	%	98.6
Cc1ccc(-c2cc(C(F)(F)F)nn2-c2ccc(S(N)(=O)=O)cc2)cc1 [Celecoxib] (100 nM)	HCC1937	%	94
Nc1ccccc1NC(=O)c1ccc(CNC(=O)OCc2cccnc2)cc1 [Entinostat] (100 nM)	HCC1937	%	94
Oc1ncc(N(CCCl)CCCl)c(O)n1 [Uracil mustard] (100 nM)	HCC1937	%	98
O=C(O)C(=O)O.[NH-][C@@H]1CCCC[C@H]1[NH-].[Pt+2] [Oxaliplatin] (100 nM)	HCC1937	%	93.1
